I'd be grateful if you could share measured IC50 for these entries.
Tested on: Mycobacterium tuberculosis
measurement-description: Antimicrobial activity against Mycobacterium tuberculosis H37Rv ATCC 27294 by microplate alamar blue assay
Assay type: functional, organism-based

Some compounds with known IC50 results, for comparison:
CCOC(=O)Cn1nc(-c2ccc(C)cc2)ccc1=O : > 100 µg/mL
NC(=O)Cn1nc(-c2ccc(Cl)cc2)ccc1=O : > 100 µg/mL
NC(=O)Cn1nc(-c2ccc(Br)cc2)ccc1=O : > 100 µg/mL
CCOC(=O)Cn1nc(-c2ccc(Br)cc2)ccc1=O : > 100 µg/mL
CCOC(=O)Cn1nc(-c2ccc(Cl)cc2)ccc1=O : > 100 µg/mL

Please give IC50, item by item, for the list that follows.
1. COC(=O)Cn1nc(-c2ccc(C)cc2)ccc1=O
2. Cc1ccc(-c2ccc(=O)n(CC(N)=O)n2)cc1

**Result**
["> 100 µg/mL", "> 100 µg/mL"]

====

Tested on: Mycobacterium tuberculosis
measurement-description: Antimicrobial activity against Mycobacterium tuberculosis H37Rv ATCC 27294 by microplate alamar blue assay
Assay type: functional, organism-based
I'd be grateful if you could share measured IC90 for these entries.

Some compounds with known IC90 results, for comparison:
CCOC(=O)C(C)n1nc(-c2ccc(C)cc2)ccc1=O (configuration not stated) : 84 µg/mL
NC(=O)Cn1nc(-c2ccc(Br)cc2)ccc1=O : > 100 µg/mL
CCOC(=O)Cn1nc(-c2ccc(Cl)cc2)ccc1=O : > 100 µg/mL
C=CCn1nc(-c2ccc(C)cc2)ccc1=O : 76.5 µg/mL
COC(=O)Cn1nc(-c2ccc(Cl)cc2)ccc1=O : > 100 µg/mL

Please give IC90, item by item, for the list that follows.
1. COC(=O)Cn1nc(-c2ccc(C)cc2)ccc1=O
2. C=CCn1nc(-c2ccc(Br)cc2)ccc1=O
3. Cc1ccc(-c2ccc(=O)n(CC(N)=O)n2)cc1

**Result**
1. > 100 µg/mL
2. 46.8 µg/mL
3. > 100 µg/mL

Please give IC90, item by item, for the list that follows.
1. C#CCn1nc(-c2ccc(Br)cc2)ccc1=O
2. CCOC(=O)Cn1nc(-c2ccc(C)cc2)ccc1=O
3. NC(=O)Cn1nc(-c2ccc(Cl)cc2)ccc1=O
4. C#CCn1nc(-c2ccc(C)cc2)ccc1=O

**Result**
["> 100 µg/mL", "> 100 µg/mL", "> 100 µg/mL", "89.2 µg/mL"]
